What Kd was measured for each of the following?
target: BHRF1 (Epstein-Barr virus); test: biochemical; type: binding, Epstein-Barr herpesvirus (EBV)
Sequence (P03182 whole entry): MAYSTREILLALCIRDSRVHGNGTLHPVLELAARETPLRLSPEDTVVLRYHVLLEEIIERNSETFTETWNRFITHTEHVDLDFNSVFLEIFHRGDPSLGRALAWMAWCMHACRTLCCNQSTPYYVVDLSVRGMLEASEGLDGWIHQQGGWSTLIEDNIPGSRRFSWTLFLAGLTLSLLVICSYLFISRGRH
No end group written: not given here.

Here is how some substances turned out for Kd.
>  <Substance>
RPNIWLTQRLQRTGDGLNAYYAR-NH2 [KScomp]

>  <Reported result>
> 1000 nM

$$$$
>  <Substance>
RPIIWIGQEISRVGDRENAYKAR-NH2 [BL6-22_Y4eK]

>  <Reported result>
30 nM

$$$$
>  <Substance>
RPQIWIHQGLQRLGDGLNAYKAR-NH2 [KL6-7_Y4eK]

>  <Reported result>
> 1000 nM

$$$$

Now turn to the next substance.
So for RPQIWIHQGLQRLGAGLNAYYAR-NH2 [KL6-7_D3fA] , the logged Kd turned out to be > 1000 nM
